Biological target: human wild-type CFTR (Homo sapiens)
Test: Short-circuit current in FRT cells expressing wild-type human CFTR
Assay type: cell-based
Parameters: expressed in transfected cells

[
  {
    "compound": "CNc1nc(Nc2ccccc2)nc(OCC(F)(F)C(F)F)n1 [compound 12]",
    "EC50": "~30 nM"
  }
]

###

Target: human wild-type CFTR (Homo sapiens, UniProt P13569)
Sequence (P13569 whole entry): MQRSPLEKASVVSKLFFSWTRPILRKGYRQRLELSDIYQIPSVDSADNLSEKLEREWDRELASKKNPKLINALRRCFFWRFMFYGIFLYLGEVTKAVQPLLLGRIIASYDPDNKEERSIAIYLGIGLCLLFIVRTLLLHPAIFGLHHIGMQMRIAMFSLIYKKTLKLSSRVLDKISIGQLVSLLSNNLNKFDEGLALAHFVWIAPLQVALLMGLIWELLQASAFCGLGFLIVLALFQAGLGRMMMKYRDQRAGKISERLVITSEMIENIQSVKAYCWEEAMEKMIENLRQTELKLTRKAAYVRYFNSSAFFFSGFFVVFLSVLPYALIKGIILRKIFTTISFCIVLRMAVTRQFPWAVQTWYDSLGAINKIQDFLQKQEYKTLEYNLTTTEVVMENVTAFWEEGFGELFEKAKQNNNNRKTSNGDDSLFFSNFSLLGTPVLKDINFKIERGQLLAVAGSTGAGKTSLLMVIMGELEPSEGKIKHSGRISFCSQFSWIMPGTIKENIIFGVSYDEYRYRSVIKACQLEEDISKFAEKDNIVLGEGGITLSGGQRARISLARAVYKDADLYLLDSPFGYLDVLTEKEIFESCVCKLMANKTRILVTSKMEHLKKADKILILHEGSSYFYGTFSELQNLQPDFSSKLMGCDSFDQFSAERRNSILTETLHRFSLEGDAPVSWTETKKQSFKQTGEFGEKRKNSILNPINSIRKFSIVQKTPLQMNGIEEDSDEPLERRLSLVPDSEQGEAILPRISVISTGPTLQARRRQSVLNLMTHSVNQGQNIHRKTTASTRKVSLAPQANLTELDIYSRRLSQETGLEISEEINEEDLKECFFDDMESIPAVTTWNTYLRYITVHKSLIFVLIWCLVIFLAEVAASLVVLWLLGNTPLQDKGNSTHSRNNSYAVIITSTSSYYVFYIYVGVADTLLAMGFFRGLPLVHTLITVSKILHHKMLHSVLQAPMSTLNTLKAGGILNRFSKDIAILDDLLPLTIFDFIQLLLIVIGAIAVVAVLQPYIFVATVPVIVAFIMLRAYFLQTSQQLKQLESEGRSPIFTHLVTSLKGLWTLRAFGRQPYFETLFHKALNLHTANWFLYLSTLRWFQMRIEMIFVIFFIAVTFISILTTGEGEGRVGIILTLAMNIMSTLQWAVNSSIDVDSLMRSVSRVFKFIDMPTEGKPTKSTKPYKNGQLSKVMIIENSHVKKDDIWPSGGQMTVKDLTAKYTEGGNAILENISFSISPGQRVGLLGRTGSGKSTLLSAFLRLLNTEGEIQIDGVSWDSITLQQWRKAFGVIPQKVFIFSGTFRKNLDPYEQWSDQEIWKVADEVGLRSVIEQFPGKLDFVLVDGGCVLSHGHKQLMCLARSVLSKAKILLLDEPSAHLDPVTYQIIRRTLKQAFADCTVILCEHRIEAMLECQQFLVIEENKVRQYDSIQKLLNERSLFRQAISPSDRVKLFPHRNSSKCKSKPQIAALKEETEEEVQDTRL
Test: Cell-based plate reader (YFP iodide influx) assay of CFTR function
Design: expressed in transfected cells; host or cells: Fischer rat thyroid (FRT) cells stably co-expressing YFP-H148Q
Settings: commercial analogs; read-out: EC50 (full-dose response assay, compounds >80% activation)
Measured EC50 of individual entries

[
  {
    "molecule": "CCOc1nc(Nc2ccc(-c3nc4ccccc4o3)cc2)nc(N2CCOCC2)n1 [K066]",
    "EC50 / nM": 2900
  },
  {
    "molecule": "C=CCNc1nc(Nc2cccc([N+](=O)[O-])c2)nc(OC(C(F)(F)F)C(F)(F)F)n1 [K059]",
    "EC50 / nM": 750
  },
  {
    "molecule": "CCOc1nc(NCCO)nc(Nc2ccc(-c3nc4ccccc4o3)cc2)n1 [K068]",
    "EC50 / nM": 4100
  },
  {
    "molecule": "CCN(CC)c1nc(Nc2ccccc2)nc(OC(C(F)(F)F)C(F)(F)F)n1 [CFTRact-K089]",
    "EC50 / nM": 250
  },
  {
    "molecule": "CNc1nc(Nc2ccc([N+](=O)[O-])cc2)nc(OCC(F)(F)C(F)F)n1 [K032]",
    "EC50 / nM": 70
  }
]

###

Measured % Activation by item
Target: human wild-type CFTR (Homo sapiens, UniProt P13569)
Experiment: Cell-based plate reader (YFP iodide influx) assay of CFTR function
Parameters: expressed in transfected cells; host or cells: Fischer rat thyroid (FRT) cells stably co-expressing YFP-H148Q
Conditions: commercial analogs; FRT cells with YFP and wildtype CFTR, 125 nM forskolin

[
  {
    "compound": "COc1nc(NCCO)nc(Nc2ccc(Cl)cc2)n1 [K033]",
    "tested-on": "human wild-type CFTR (Homo sapiens, UniProt P13569)",
    "% Activation (%)": 22
  },
  {
    "compound": "FC(F)(F)COc1nc(Nc2ccc(OC(F)(F)F)cc2)nc(N2CCCCC2)n1 [K073]",
    "tested-on": "human wild-type CFTR (Homo sapiens, UniProt P13569)",
    "% Activation (%)": 19
  },
  {
    "compound": "FC(F)(F)C(Oc1nc(Nc2cccc3ccccc23)nc(OC(C(F)(F)F)C(F)(F)F)n1)C(F)(F)F [K004]",
    "tested-on": "human wild-type CFTR (Homo sapiens, UniProt P13569)",
    "% Activation (%)": 16
  },
  {
    "compound": "FC(F)(F)COc1nc(Nc2ccc(OC(F)(F)Cl)cc2)nc(N2CCN(c3cccc(Cl)c3)CC2)n1 [K081]",
    "tested-on": "human wild-type CFTR (Homo sapiens, UniProt P13569)",
    "% Activation (%)": 24
  },
  {
    "compound": "C=CCNc1nc(Nc2ccc(I)cc2C)nc(OCC)n1 [K053]",
    "tested-on": "human wild-type CFTR (Homo sapiens, UniProt P13569)",
    "% Activation (%)": 24
  },
  {
    "compound": "FC(F)(F)COc1nc(Nc2ccc(OC(F)(F)Cl)cc2)nc(NC2CC2)n1 [K083]",
    "tested-on": "human wild-type CFTR (Homo sapiens, UniProt P13569)",
    "% Activation (%)": 54
  },
  {
    "compound": "CCCCNc1nc(Nc2ccc(OC(F)(F)Cl)cc2)nc(OCC(F)(F)F)n1 [K085]",
    "tested-on": "human wild-type CFTR (Homo sapiens, UniProt P13569)",
    "% Activation (%)": 25
  },
  {
    "compound": "COc1nc(NCCN2CCOCC2)nc(Nc2ccccc2)n1 [K021]",
    "tested-on": "human wild-type CFTR (Homo sapiens, UniProt P13569)",
    "% Activation (%)": 16
  },
  {
    "compound": "C=CCNc1nc(Nc2ccc([N+](=O)[O-])cc2)nc(OC)n1 [K048]",
    "tested-on": "human wild-type CFTR (Homo sapiens, UniProt P13569)",
    "% Activation (%)": 46
  },
  {
    "compound": "CCCCCCNc1nc(Nc2ccc(I)cc2)nc(OC)n1 [K039]",
    "tested-on": "human wild-type CFTR (Homo sapiens, UniProt P13569)",
    "% Activation (%)": 27
  },
  {
    "compound": "C=CCNc1nc(Nc2ccc(Cl)cc2)nc(OC)n1 [K034]",
    "tested-on": "human wild-type CFTR (Homo sapiens, UniProt P13569)",
    "% Activation (%)": 73
  },
  {
    "compound": "CCC(C)Nc1nc(Nc2ccc(OC(F)(F)F)cc2)nc(OCC(F)(F)F)n1 (stereo not shown) [K086]",
    "tested-on": "human wild-type CFTR (Homo sapiens, UniProt P13569)",
    "% Activation (%)": 20
  },
  {
    "compound": "CCOc1nc(NCCN2CCOCC2)nc(Nc2ccc([N+](=O)[O-])cc2)n1 [K090]",
    "tested-on": "human wild-type CFTR (Homo sapiens, UniProt P13569)",
    "% Activation (%)": 52
  },
  {
    "compound": "CC(=O)N1CCN(c2nc(Nc3ccccc3C(=O)c3ccccc3)nc(OC(C(F)(F)F)C(F)(F)F)n2)CC1 [K064]",
    "tested-on": "human wild-type CFTR (Homo sapiens, UniProt P13569)",
    "% Activation (%)": 40
  },
  {
    "compound": "FC(F)(F)C(Oc1nc(Nc2ccccc2)nc(OC(C(F)(F)F)C(F)(F)F)n1)C(F)(F)F [K010]",
    "tested-on": "human wild-type CFTR (Homo sapiens, UniProt P13569)",
    "% Activation (%)": 21
  },
  {
    "compound": "FC(F)(F)COc1nc(Nc2ccc(OC(F)(F)F)cc2)nc(NC2CC2)n1 [K079]",
    "tested-on": "human wild-type CFTR (Homo sapiens, UniProt P13569)",
    "% Activation (%)": 40
  },
  {
    "compound": "FC(F)(F)COc1nc(Nc2ccc(OC(F)(F)Cl)cc2)nc(N2CCCCC2)n1 [K070]",
    "tested-on": "human wild-type CFTR (Homo sapiens, UniProt P13569)",
    "% Activation (%)": 28
  },
  {
    "compound": "CCCCNc1nc(Nc2ccc(OC(F)(F)F)cc2)nc(OCC(F)(F)F)n1 [K030]",
    "tested-on": "human wild-type CFTR (Homo sapiens, UniProt P13569)",
    "% Activation (%)": 16
  },
  {
    "compound": "CCCCCCNc1nc(Nc2ccc(Cl)cc2)nc(OCC)n1 [K036]",
    "tested-on": "human wild-type CFTR (Homo sapiens, UniProt P13569)",
    "% Activation (%)": 46
  }
]

Hey, just so you know, these numbers are from patent US11230535B2.
